- Measurement Protocol: Tmax in beagle dog at 1 mg/kg, iv and 2 mg/kg, po
- Assay type: ADME, organism-based, Canis lupus familiaris
- Reported Conditions: in vivo

>  <Structure Notation>
N[C@H]1C[C@@H](N2Cc3cn[nH]c3C2)CO[C@@H]1c1cc(F)ccc1F

>  <Unit Annotation>
h

>  <Tmax>
3.5

$$$$

====

- Measurement Protocol: Plasma clearance in beagle dog at 1 mg/kg, iv and 2 mg/kg, po
- Assay type: ADME, organism-based, Canis lupus familiaris
Measured Parameter: clearance (mL/min/kg)

>  <Structure Notation>
N[C@H]1C[C@@H](N2Cc3cn[nH]c3C2)CO[C@@H]1c1cc(F)ccc1F

>  <Unit Annotation>
mL/min/kg

>  <Measured Result>
2.7

$$$$

====

- Target Or System: UniProt Q9UHL4
The following compounds are shown together with reported IC50 values.

>  <Structure Notation>
N[C@H]1C[C@@H](N2CCn3c(nnc3C(F)(F)F)C2)CO[C@@H]1c1cc(F)ccc1F

>  <IC50>
> 100 µM

$$$$
>  <Structure Notation>
N[C@H]1C[C@@H](N2Cc3ccccc3C2=O)CO[C@@H]1c1cc(F)ccc1F

>  <IC50>
> 100 µM

$$$$

====

- Measurement Protocol: Plasma clearance in rhesus monkey at 1 mg/kg, iv and 2 mg/kg, po
- Type: ADME, organism-based, Macaca mulatta
Measured Parameter: clearance (mL/min/kg)

>  <Structure Notation>
N[C@H]1C[C@@H](N2Cc3cn[nH]c3C2)CO[C@@H]1c1cc(F)ccc1F

>  <Measured Result>
5.2

$$$$

====

- Measurement Protocol: Cmax in rhesus monkey at 2 mg/kg, po
- Type: ADME, organism-based, Macaca mulatta
- Set-up: dose 2 mg/kg, route oral
- Reported Conditions: in vivo

>  <Structure Notation>
N[C@H]1C[C@@H](N2Cc3cn[nH]c3C2)CO[C@@H]1c1cc(F)ccc1F

>  <Unit Annotation>
nM

>  <Cmax>
1480

$$$$

====

- Measurement Protocol: Terminal half life in rhesus monkey at 1 mg/kg, iv and 2 mg/kg, po
- Format: ADME, organism-based, Macaca mulatta
- Reported Conditions: in vivo, read-out: beta t1/2 (converted)
Measured Parameter: half-life (h)

>  <Structure Notation>
N[C@H]1C[C@@H](N2Cc3cn[nH]c3C2)CO[C@@H]1c1cc(F)ccc1F

>  <Measured Parameter>
half-life

>  <Unit Annotation>
h

>  <Measured Result>
9.7

$$$$

====

- Measurement Protocol: Tmax in rat at 1 mg/kg, iv and 2 mg/kg, po
- Type: ADME, organism-based
- Reported Conditions: in vivo
Measured Parameter: Tmax (min)

>  <Structure Notation>
N[C@H]1C[C@@H](N2Cc3cn[nH]c3C2)CO[C@@H]1c1cc(F)ccc1F

>  <Unit Annotation>
min

>  <Measured Result>
30

$$$$

====

- Measurement Protocol: Volume of distribution at steady state in beagle dog at 1 mg/kg, iv and 2 mg/kg, po
- Type: ADME, organism-based, Canis lupus familiaris
- Reported Conditions: in vivo, read-out: Vdss
Measured Parameter: Vd (L/kg)

>  <Structure Notation>
N[C@H]1C[C@@H](N2Cc3cn[nH]c3C2)CO[C@@H]1c1cc(F)ccc1F

>  <Measured Parameter>
Vd

>  <Measured Result>
3

$$$$

====

- Measurement Protocol: Cmax in rat at 2 mg/kg, po
- Type: ADME, organism-based
- Design: dose 2 mg/kg, route oral
- Reported Conditions: in vivo

>  <Structure Notation>
N[C@H]1C[C@@H](N2Cc3cn[nH]c3C2)CO[C@@H]1c1cc(F)ccc1F

>  <Cmax>
800 nM

$$$$

====

- Measurement Protocol: Terminal half life in beagle dog at 1 mg/kg, iv and 2 mg/kg, po
- Assay type: ADME, organism-based, Canis lupus familiaris
- Reported Conditions: in vivo, read-out: beta t1/2 (converted)

>  <Structure Notation>
N[C@H]1C[C@@H](N2Cc3cn[nH]c3C2)CO[C@@H]1c1cc(F)ccc1F

>  <Unit Annotation>
min

>  <half-life>
780

$$$$

====

- Measurement Protocol: Volume of distribution at steady state in rhesus monkey at 1 mg/kg, iv and 2 mg/kg, po
- Type: ADME, organism-based, Macaca mulatta
- Reported Conditions: in vivo, read-out: Vdss

>  <Structure Notation>
N[C@H]1C[C@@H](N2Cc3cn[nH]c3C2)CO[C@@H]1c1cc(F)ccc1F

>  <Vd (L/kg)>
4.2

$$$$

The measured values listed here are drawn from ChEMBL document CHEMBL2424528.
